Reported values of Cardioselectivity ratio for individual entries
Tested on: β1 -receptor
Measurement Protocol: inhibition of the positive chronotropic actions of isoproterenol in isolated guinea pig atrial preparations
Assay Conditions: β1 (atria) versus β2 (trachea), from pA2 values
# print the numeric value only

Past entries and their recorded results:
Molecule	System Name	Property	Meas Value
N#Cc1ccccc1OCC(O)CNCCc1ccccn1 (centres unmarked)	β1 -receptor	Cardioselectivity ratio	2.5
N#Cc1ccccc1OCC(O)CNCCN1CCNCC1 (centres unmarked)	β1 -receptor	Cardioselectivity ratio	1000
N#Cc1ccccc1OCC(O)CNCCc1cccnc1 (centres unmarked)	β1 -receptor	Cardioselectivity ratio	5.8

Observed Cardioselectivity ratio on β1 -receptor, entry N#Cc1ccccc1OCC(O)CNCCc1ccncc1 (centres unmarked) , equals 4.1

Observed Cardioselectivity ratio on β1 -receptor, entry N#Cc1ccccc1OCC(O)CNCCN1CCOCC1 (centres unmarked) , equals 5.9

* * *

System Name: β1 -receptor (Cavia porcellus, UniProt H0W3H1)
Construct: isolated guinea pig atrial preparations; from tissue; host or cells: isolated guinea pig atria
Sequence (H0W3H1 1-470): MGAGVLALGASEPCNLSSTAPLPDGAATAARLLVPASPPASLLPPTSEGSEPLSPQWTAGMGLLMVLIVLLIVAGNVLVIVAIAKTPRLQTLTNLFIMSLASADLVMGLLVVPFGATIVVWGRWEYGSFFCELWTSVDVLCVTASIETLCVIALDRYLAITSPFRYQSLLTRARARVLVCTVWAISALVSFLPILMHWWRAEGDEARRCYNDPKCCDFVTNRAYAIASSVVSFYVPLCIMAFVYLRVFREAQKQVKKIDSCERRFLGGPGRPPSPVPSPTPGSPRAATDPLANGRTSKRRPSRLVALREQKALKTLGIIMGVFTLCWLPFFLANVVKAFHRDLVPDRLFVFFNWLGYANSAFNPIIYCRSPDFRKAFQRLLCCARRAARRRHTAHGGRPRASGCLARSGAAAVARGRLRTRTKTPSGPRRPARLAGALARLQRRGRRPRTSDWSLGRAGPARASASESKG
Measurement Protocol: inhibition of the positive chronotropic actions of isoproterenol in isolated guinea pig atrial preparations
Assay Conditions: isolated guinea pig atria; vs isoproterenol positive chronotropic action; read-out: pA2 values β1 (atria) (converted)
Property: Kb (nM)
Numeric only. Scale: nM

Compound	Kb (nM)
N#Cc1ccccc1OCC(O)CNCCc1cccnc1 (stereo not shown)	15.5
N#Cc1ccccc1OCC(O)CNCCN1CCNCC1 (stereo not shown)	34.7

Lab book: Kb of N#Cc1ccccc1OCC(O)CNCCc1ccccn1 (stereo not shown) noted as 25.7

Lab book: Kb of N#Cc1ccccc1OCC(O)CNCCN1CCOCC1 (stereo not shown) noted as 23.4

* * *

System Name: β2 (Cavia porcellus, UniProt Q8K4Z4)
Construct: isolated guinea pig tracheal chains; from tissue; host or cells: isolated guinea pig tracheal chains
Sequence (Q8K4Z4 whole entry): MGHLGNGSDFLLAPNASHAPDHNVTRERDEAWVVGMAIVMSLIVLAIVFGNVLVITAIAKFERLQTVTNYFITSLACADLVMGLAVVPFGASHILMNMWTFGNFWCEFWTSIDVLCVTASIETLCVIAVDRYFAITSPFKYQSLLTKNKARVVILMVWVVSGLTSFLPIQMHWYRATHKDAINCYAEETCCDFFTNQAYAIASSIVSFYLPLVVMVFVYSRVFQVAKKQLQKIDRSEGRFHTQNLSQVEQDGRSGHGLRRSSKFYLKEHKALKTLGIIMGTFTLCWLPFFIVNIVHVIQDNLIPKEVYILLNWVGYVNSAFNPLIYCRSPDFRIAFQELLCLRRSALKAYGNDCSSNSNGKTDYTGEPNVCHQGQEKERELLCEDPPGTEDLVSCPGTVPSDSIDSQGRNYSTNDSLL
Measurement Protocol: inhibition of isoproterenol-induced relaxation in isolated guinea pig tracheal chains contracted with PGF2α
Assay Conditions: vs isoproterenol-induced relaxation, read-out: pA2 values β2 (trachea) (converted)
Reported values of Kb for individual entries
Numeric only. Scale: nM

Compound	Meas Value
N#Cc1ccccc1OCC(O)CNCCN1CCNCC1 (stereo not shown)	34700
N#Cc1ccccc1OCC(O)CNCCc1cccnc1 (stereo not shown)	89.1

Lab book: Kb of N#Cc1ccccc1OCC(O)CNCCc1ccccn1 (stereo not shown) noted as 64.6

Lab book: Kb of N#Cc1ccccc1OCC(O)CNCCN1CCOCC1 (stereo not shown) noted as 138
